protocol-summary: Inhibition of Saccharomyces cerevisiae alpha-glucosidase using p-nitrophenyl-alpha-D-glucopyranoside substrate incubated for 30 mins
endpoint-name: IC50 (µM)

CC1(C)CC[C@]2(C(=O)O)CC[C@]3(C)C(=CC[C@@H]4[C@@]5(C)CC[C@H](O)C(C)(C)[C@@H]5CC[C@]43C)[C@@H]2C1
87.2
CCCCCC(=O)N[C@@H](c1ccccc1)[C@@H](O)C(=O)O[C@H]1C[C@@]2(O)[C@@H](OC(=O)c3ccccc3)[C@@H]3[C@]4(OC(C)=O)CO[C@@H]4C[C@H](O[C@@H]4OC[C@@H](O)[C@H](O)[C@H]4O)[C@@]3(C)C(=O)[C@H](OC(C)=O)C(=C1C)C2(C)C
94.1
